Assay Details: Tmax in CD rat at 1 mg/kg, po
Assay type: ADME, organism-based
Set-up: dose 1 mg/kg, route oral
Particulars: in vivo
Observed Property: Tmax

Can you share its Tmax? I mean this compound: `O=S(=O)(Cc1ccccc1)Nc1ccc(-c2ccc3c(cnn3-c3ccc(F)cc3)c2)c(C(F)(F)F)c1` 6 h

---

Assay Details: Volume of distribution at steady state in CD rat at 1 mg/kg, po and 1 mg/kg, iv
Format: ADME, organism-based
Particulars: in vivo, read-out: Vdss
Observed Property: Vd (L/kg)
Record the value in L/kg, omitting the unit from your answer.

Can you share its Vd? I mean this compound: `O=S(=O)(Cc1ccccc1)Nc1ccc(-c2ccc3c(cnn3-c3ccc(F)cc3)c2)c(C(F)(F)F)c1` 2

---

Can you tell me pEC50 for the items I'm about to list?
Assayed System: Glucocorticoid receptor (Homo sapiens, UniProt P04150)
Sequence (P04150 whole entry): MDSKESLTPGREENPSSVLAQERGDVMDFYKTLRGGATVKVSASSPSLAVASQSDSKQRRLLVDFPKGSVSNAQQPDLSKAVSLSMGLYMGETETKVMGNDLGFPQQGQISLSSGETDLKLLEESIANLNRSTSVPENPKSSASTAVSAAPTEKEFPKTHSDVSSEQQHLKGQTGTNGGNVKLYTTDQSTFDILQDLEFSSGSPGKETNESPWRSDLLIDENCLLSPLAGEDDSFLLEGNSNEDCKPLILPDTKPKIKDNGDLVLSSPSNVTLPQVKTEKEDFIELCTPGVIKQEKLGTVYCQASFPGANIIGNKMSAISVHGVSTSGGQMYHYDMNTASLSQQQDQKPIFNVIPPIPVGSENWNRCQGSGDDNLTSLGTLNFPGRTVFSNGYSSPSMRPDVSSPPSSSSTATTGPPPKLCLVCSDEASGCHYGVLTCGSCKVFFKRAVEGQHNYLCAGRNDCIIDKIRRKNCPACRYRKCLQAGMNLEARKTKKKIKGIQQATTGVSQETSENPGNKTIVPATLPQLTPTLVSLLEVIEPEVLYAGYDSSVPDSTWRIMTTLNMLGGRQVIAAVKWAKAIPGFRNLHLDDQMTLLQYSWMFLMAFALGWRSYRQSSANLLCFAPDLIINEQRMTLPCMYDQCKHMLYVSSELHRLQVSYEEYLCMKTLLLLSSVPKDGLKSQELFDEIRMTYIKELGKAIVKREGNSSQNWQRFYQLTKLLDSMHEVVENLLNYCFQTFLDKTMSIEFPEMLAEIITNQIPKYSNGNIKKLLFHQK
Assay Details: Agonist activity at GR in human A549 cells transfected with luciferase gene linked to MMTV promoter assessed as luciferase transactivation activity after 24 hrs
Field pEC50 (float): negative decimal logarithm of the concentration in molar.

Can you share its pEC50? I mean this compound: `O=S(=O)(Nc1ccc(-c2ccc3c(cnn3-c3ccc(F)cc3)c2)c(C(F)(F)F)c1)c1cccc(C(F)(F)F)c1` 6.70

Can you share its pEC50? I mean this compound: `CCN(c1ccccc1)S(=O)(=O)c1ccc(-c2ccc3c(cnn3-c3ccc(F)cc3)c2)c(C(F)(F)F)c1` 6.70

Can you share its pEC50? I mean this compound: `CC(C)N(c1ccccc1)S(=O)(=O)c1ccc(-c2ccc3c(cnn3-c3ccc(F)cc3)c2)c(C(F)(F)F)c1` 6.90

Can you share its pEC50? I mean this compound: `CC(C)S(=O)(=O)Nc1ccc(-c2ccc3c(cnn3-c3ccc(F)cc3)c2)c(C(F)(F)F)c1` 6.80

Can you share its pEC50? I mean this compound: `O=S(=O)(Nc1ccc(-c2ccc3c(cnn3-c3ccc(F)cc3)c2)c(C(F)(F)F)c1)c1cccc(OC(F)(F)F)c1` 6.60

Can you share its pEC50? I mean this compound: `CN(c1ccccc1)S(=O)(=O)c1ccc(-c2ccc3c(cnn3-c3ccc(F)cc3)c2)c(C(F)(F)F)c1` 6.20

Can you share its pEC50? I mean this compound: `O=S(=O)(Cc1ccccc1)Nc1ccc(-c2ccc3c(cnn3-c3ccc(F)cc3)c2)c(C(F)(F)F)c1` 7.70

Can you share its pEC50? I mean this compound: `O=S(=O)(Nc1ccc(-c2ccc3c(cnn3-c3ccc(F)cc3)c2)c(C(F)(F)F)c1)c1ccsc1` 6.60

Can you share its pEC50? I mean this compound: `COc1cccc(S(=O)(=O)Nc2ccc(-c3ccc4c(cnn4-c4ccc(F)cc4)c3)c(C(F)(F)F)c2)c1` 6.60

Can you share its pEC50? I mean this compound: `CCCN(c1ccccc1)S(=O)(=O)c1ccc(-c2ccc3c(cnn3-c3ccc(F)cc3)c2)c(C(F)(F)F)c1` 6.50

---

Assayed System: UniProtKB P10275
Sequence (P10275 whole entry): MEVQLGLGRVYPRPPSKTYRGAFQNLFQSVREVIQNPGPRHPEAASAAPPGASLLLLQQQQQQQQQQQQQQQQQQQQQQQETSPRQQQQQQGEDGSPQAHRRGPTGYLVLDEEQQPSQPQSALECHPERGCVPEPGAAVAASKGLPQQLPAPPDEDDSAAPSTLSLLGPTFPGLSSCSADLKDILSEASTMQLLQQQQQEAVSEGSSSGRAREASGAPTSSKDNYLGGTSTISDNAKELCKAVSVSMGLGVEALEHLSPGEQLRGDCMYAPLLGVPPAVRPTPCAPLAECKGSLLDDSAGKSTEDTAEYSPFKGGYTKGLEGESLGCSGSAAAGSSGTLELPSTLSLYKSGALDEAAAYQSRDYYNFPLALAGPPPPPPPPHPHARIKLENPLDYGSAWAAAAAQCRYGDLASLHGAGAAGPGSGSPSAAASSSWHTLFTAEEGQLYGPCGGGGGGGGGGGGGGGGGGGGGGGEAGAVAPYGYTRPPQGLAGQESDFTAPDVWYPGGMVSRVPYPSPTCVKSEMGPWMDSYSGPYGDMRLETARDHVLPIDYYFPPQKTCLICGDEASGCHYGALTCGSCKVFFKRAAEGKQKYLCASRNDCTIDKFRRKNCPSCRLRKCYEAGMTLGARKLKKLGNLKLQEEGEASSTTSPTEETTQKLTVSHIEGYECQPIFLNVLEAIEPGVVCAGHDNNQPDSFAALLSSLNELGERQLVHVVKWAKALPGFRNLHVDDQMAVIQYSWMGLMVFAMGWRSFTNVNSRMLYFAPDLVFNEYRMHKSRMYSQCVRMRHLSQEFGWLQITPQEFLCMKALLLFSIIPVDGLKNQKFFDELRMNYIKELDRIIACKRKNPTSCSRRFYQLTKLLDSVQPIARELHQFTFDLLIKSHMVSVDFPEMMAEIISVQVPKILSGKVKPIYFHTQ
Can you tell me IC50 for the items I'm about to list?
Record the value in µM, omitting the unit from your answer.

Can you share its IC50? I mean this molecule: `O=S(=O)(NCCO)c1ccc(-c2ccc3c(cnn3-c3ccc(F)cc3)c2)c(C(F)(F)F)c1` 10

Can you share its IC50? I mean this molecule: `O=S(=O)(Nc1ccc(-c2ccc3c(cnn3-c3ccc(F)cc3)c2)c(C(F)(F)F)c1)c1ccsc1` 2.51

Can you share its IC50? I mean this molecule: `O=S(=O)(Nc1ccc(-c2ccc3c(cnn3-c3ccc(F)cc3)c2)c(C(F)(F)F)c1)c1ccccc1` 6.31

Can you share its IC50? I mean this molecule: `CS(=O)(=O)Nc1ccc(-c2ccc3c(cnn3-c3ccc(F)cc3)c2)c(C(F)(F)F)c1` 5.01

---

Assay Details: Plasma concentration in mouse bearing mouse NIH-3T3 cells integrated with MMTV reporter gene at 10 mg/kg, po after 1 hr
Assay type: ADME, organism-based, NIH3T3
Parameters: dose 10 mg/kg, route oral
Can you tell me concentration at 1 h for the items I'm about to list?
Record the value in µM, omitting the unit from your answer.

Can you share its concentration at 1 h? I mean this molecule: `O=S(=O)(Cc1ccccc1)Nc1ccc(-c2ccc3c(cnn3-c3ccc(F)cc3)c2)c(C(F)(F)F)c1` 2.73

Can you share its concentration at 1 h? I mean this molecule: C[C@@H]1C[C@H]2[C@@H]3CCC4=CC(=O)C=C[C@]4(C)[C@@]3(F)[C@@H](O)C[C@]2(C)[C@@]1(O)C(=O)CO [DEXAMETHASONE] 17.7

---

Can you tell me IC50 for the items I'm about to list?
Assayed System: UniProt P04150
Sequence (P04150 whole entry): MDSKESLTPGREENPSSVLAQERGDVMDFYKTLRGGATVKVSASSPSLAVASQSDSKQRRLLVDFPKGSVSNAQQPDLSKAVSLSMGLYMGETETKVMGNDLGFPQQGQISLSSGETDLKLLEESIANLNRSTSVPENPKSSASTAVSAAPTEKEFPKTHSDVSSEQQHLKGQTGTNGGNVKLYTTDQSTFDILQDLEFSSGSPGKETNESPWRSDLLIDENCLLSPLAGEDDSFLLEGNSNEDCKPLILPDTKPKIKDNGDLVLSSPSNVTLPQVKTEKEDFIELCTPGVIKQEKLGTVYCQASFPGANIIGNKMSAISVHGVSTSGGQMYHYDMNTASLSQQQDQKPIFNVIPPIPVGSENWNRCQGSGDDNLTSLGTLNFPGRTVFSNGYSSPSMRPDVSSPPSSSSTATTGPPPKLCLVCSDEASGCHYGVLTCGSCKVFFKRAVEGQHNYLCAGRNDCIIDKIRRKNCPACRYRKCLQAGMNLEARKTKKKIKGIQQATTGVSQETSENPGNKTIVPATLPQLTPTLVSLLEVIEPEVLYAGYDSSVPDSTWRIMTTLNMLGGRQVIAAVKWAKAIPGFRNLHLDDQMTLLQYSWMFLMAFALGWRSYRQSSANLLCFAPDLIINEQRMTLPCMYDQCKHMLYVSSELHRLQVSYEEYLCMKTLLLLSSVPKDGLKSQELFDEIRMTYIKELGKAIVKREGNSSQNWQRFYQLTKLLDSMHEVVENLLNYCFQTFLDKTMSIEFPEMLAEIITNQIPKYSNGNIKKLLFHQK
Assay Details: Activity at GR in human A549 cells by NF-kappaB transrepression assay
Format: cell-based

Can you share its IC50? I mean this molecule: `COc1cccc(S(=O)(=O)Nc2ccc(-c3ccc4c(cnn4-c4ccc(F)cc4)c3)c(C(F)(F)F)c2)c1` 79.4 nM

Can you share its IC50? I mean this molecule: `O=S(=O)(Nc1ccc(-c2ccc3c(cnn3-c3ccc(F)cc3)c2)c(C(F)(F)F)c1)c1ccccc1` > 10000 nM

Can you share its IC50? I mean this molecule: `CCCNS(=O)(=O)c1ccc(-c2ccc3c(cnn3-c3ccc(F)cc3)c2)c(C(F)(F)F)c1` > 10000 nM

Can you share its IC50? I mean this molecule: `O=S(=O)(Nc1ccc(-c2ccc3c(cnn3-c3ccc(F)cc3)c2)c(C(F)(F)F)c1)c1cccc(OC(F)(F)F)c1` 79.4 nM

Can you share its IC50? I mean this molecule: `Cc1cccc(-c2ccc3c(cnn3-c3ccc(F)cc3)c2)c1` > 10000 nM

Can you share its IC50? I mean this molecule: `CC(C)CNS(=O)(=O)c1ccc(-c2ccc3c(cnn3-c3ccc(F)cc3)c2)c(C(F)(F)F)c1` > 10000 nM

Can you share its IC50? I mean this molecule: `Fc1ccc(-n2ncc3cc(-c4ccccc4)ccc32)cc1` > 10000 nM

Can you share its IC50? I mean this molecule: `CC(C)N(c1ccccc1)S(=O)(=O)c1ccc(-c2ccc3c(cnn3-c3ccc(F)cc3)c2)c(C(F)(F)F)c1` 50.1 nM

Can you share its IC50? I mean this molecule: `Oc1ccc(-c2ccc3c(cnn3-c3ccc(F)cc3)c2)cc1` > 10000 nM

Can you share its IC50? I mean this molecule: `Cc1ccccc1-c1ccc2c(cnn2-c2ccc(F)cc2)c1` > 10000 nM

Can you share its IC50? I mean this molecule: `Fc1ccc(-n2ncc3cc(-c4cccc(C(F)(F)F)c4)ccc32)cc1` > 10000 nM

Can you share its IC50? I mean this molecule: `O=S(=O)(Nc1ccc(-c2ccc3c(cnn3-c3ccc(F)cc3)c2)c(C(F)(F)F)c1)c1ccsc1` 100 nM

Can you share its IC50? I mean this molecule: `N#Cc1cccc(-c2ccc3c(cnn3-c3ccc(F)cc3)c2)c1` > 10000 nM

Can you share its IC50? I mean this molecule: `CN(c1ccccc1)S(=O)(=O)c1ccc(-c2ccc3c(cnn3-c3ccc(F)cc3)c2)c(C(F)(F)F)c1` 398 nM

Can you share its IC50? I mean this molecule: `Fc1ccc(-n2ncc3cc(-c4ccccc4C(F)(F)F)ccc32)cc1` > 10000 nM

Can you share its IC50? I mean this molecule: `CC(C)S(=O)(=O)Nc1ccc(-c2ccc3c(cnn3-c3ccc(F)cc3)c2)c(C(F)(F)F)c1` 50.1 nM

Can you share its IC50? I mean this molecule: `CCCN(c1ccccc1)S(=O)(=O)c1ccc(-c2ccc3c(cnn3-c3ccc(F)cc3)c2)c(C(F)(F)F)c1` 316 nM

Can you share its IC50? I mean this molecule: `CCNS(=O)(=O)c1ccc(-c2ccc3c(cnn3-c3ccc(F)cc3)c2)c(C(F)(F)F)c1` > 10000 nM

Can you share its IC50? I mean this molecule: `CS(=O)(=O)Nc1ccc(-c2ccc3c(cnn3-c3ccc(F)cc3)c2)c(C(F)(F)F)c1` > 10000 nM
